# tested-system: KRAS
# condition-summary: ASO, A431, 2 µM
After the bases stand the sugars from the 5' end (letter, count) and the backbone: PS all phosphorothioate, else s phosphorothioate and o phosphodiester by linkage. Methylation of C is not given here. e = 2'-O-(2-methoxyethyl) (MOE); k = constrained ethyl (cEt); d = 2'-deoxy (DNA)
Quick reference for target mRNA inhibition among some sequences
Respond with the bare value in %.

Below are worked cases with known answers.
[[record]]
polymer_sequence = "TAATAGTTTCCATTGC (sugars k3 d10 k3, PS)"
tested_system = "KRAS"
measurement_kind = "target mRNA inhibition"
recorded_number = 53

[[record]]
polymer_sequence = "GTAAATATAGCCCCAA (sugars k3 d10 k3, PS)"
tested_system = "KRAS"
measurement_kind = "target mRNA inhibition"
recorded_number = 29

[[record]]
polymer_sequence = "CCATTCAAAGTTCACA (sugars kkdddddddddkekek, PS)"
tested_system = "KRAS"
measurement_kind = "target mRNA inhibition"
recorded_number = 36

[[record]]
polymer_sequence = "TCCAGTATTAACACAG (sugars k3 d10 k3, PS)"
tested_system = "KRAS"
measurement_kind = "target mRNA inhibition"
recorded_number = 34

[[record]]
polymer_sequence = "CCAGTGTTAAGAGAAC (sugars kkdddddddddkekek, PS)"
tested_system = "KRAS"
measurement_kind = "target mRNA inhibition"
recorded_number = 43

[[record]]
polymer_sequence = "GATGTAGGGCATTTCT (sugars k3 d10 k3, PS)"
tested_system = "KRAS"
measurement_kind = "target mRNA inhibition"
recorded_number = 0


For the sequence TTCAAAGTTCACATAA (sugars k3 d10 k3, PS) , what target mRNA inhibition is on record?
7

Would you mind doing AAAAGTGTTTATGCAA (sugars k3 d10 k3, PS) as well?
32

// next record ATGGTGTAACATAGGT (sugars kddddddddddkekek, PS)
47

Queued: GCATTTCTGATGTGAC (sugars k3 d10 k3, PS)
24

Next record, please: GTTCTGTCTATTCATA (sugars k3 d10 k3, PS)
31

---

# tested-system: MALAT1
# condition-summary: ASO, A431, 0.005 µM
After the bases stand the sugars from the 5' end (letter, count) and the backbone: PS all phosphorothioate, else s phosphorothioate and o phosphodiester by linkage. Methylation of C is not given here. k = constrained ethyl (cEt); d = 2'-deoxy (DNA)
Entries annotated with measured target mRNA inhibition
Could you give me the number in %? Just the number is fine.

Under MALAT1: target mRNA inhibition value of GGCGGACTTTCTCCCC (sugars k3 d10 k3, PS) ?
-17

---

# tested-system: APOL1
# condition-summary: ASO, A431, 1 µM
After the bases stand the sugars from the 5' end (letter, count) and the backbone: PS all phosphorothioate, else s phosphorothioate and o phosphodiester by linkage. Methylation of C is not given here. k = constrained ethyl (cEt); d = 2'-deoxy (DNA)
I would appreciate it if you labelled entries yes when target mRNA inhibition is 90% or higher, otherwise no.

Assess whether reported target mRNA inhibition for AAGGTTGTCCAGAGCT (sugars k4 d9 k3, PS) sits at 90% or higher.
no

---

# tested-system: KRAS
# condition-summary: ASO, A431, 2 µM
After the bases stand the sugars from the 5' end (letter, count) and the backbone: PS all phosphorothioate, else s phosphorothioate and o phosphodiester by linkage. Methylation of C is not given here. e = 2'-O-(2-methoxyethyl) (MOE); k = constrained ethyl (cEt); d = 2'-deoxy (DNA)
Decide by target mRNA inhibition: equal to or exceeding 50% means YES, less means NO.

[[record]]
polymer_sequence = "CCAGTGTTAAGAGAAC (sugars kkdddddddddkdkdk, PS)"
class_assignment = "NO"

[[record]]
polymer_sequence = "TCCAGTGATACTTTCA (sugars kkkddddddddkekek, PS)"
class_assignment = "NO"

[[record]]
polymer_sequence = "AGGCAAGATGACACTA (sugars k3 d10 k3, PS)"
class_assignment = "NO"

[[record]]
polymer_sequence = "GTTTAAAAAAAAAATT (sugars k3 d10 k3, PS)"
class_assignment = "NO"

[[record]]
polymer_sequence = "CAGTGTGACTCAGTTA (sugars kkkdddddddddkeke, PS)"
class_assignment = "YES"

[[record]]
polymer_sequence = "TTATGGTTAGGGGAAT (sugars k3 d10 k3, PS)"
class_assignment = "NO"

[[record]]
polymer_sequence = "GTGTGACTCAGTTAAA (sugars kkddddddddkekekk, PS)"
class_assignment = "NO"

[[record]]
polymer_sequence = "GGAGATATCCACAGCA (sugars k3 d10 k3, PS)"
class_assignment = "NO"


Test whether the sequence AGGAGTCTTTATAGTA (sugars kkkdddddddddkeke, PS) records target mRNA inhibition of 50% or higher.
NO

Try the sequence ACAAATGCTAATAATT (sugars k3 d10 k3, PS)
NO

# repeat for GGAGTCTTTATAGTAA (sugars k3 d10 k3, PS)
NO

Moving on to the next sequence: TTGATTTGTCAGCAGG (sugars kkdddddddddkdkdk, PS)
YES

# repeat for TTTATGCAATGTTAAT (sugars k3 d10 k3, PS)
NO

Now consider TGGTGTAACATAGGTT (sugars k3 d9 k3 e1, PS) and answer again.
YES

Also, TTGAAAAGTGTTTATG (sugars k3 d10 k3, PS) please.
NO

For TTCATTGTTTAAAAAA (sugars k3 d10 k3, PS) then?
NO

TGTAGTTTCACATAGC (sugars k3 d10 k3, PS) , same question.
YES

Try the sequence TCCAGTGATACTTTCA (sugars kkdddddddddkdkdk, PS)
NO

Also GTGTTTATGCAATGTT (sugars k3 d9 k3 e1, PS) , if possible.
YES

Ok, now CTGTGAAACTCTCTAT (sugars k3 d10 k3, PS)
NO
